Hey, just so you know, these numbers are from patent US20260226084A1.

# System: Pa16c cells
# EXPERIMENTAL DETAILS: Pa16c Cell Proliferation Assay
# Type: cell-based
# RUN PARAMETERS: Table 2, read-out: Inhibition of cell proliferation in Pa16c (IC50 class)
Recorded IC50 by entry

compound="Cc1ccc(NC(=O)c2ccc(C(F)F)nc2)cc1-c1ccnc(-c2ccnc(NC(=O)C3CC3)c2)n1 [Example 70]" result="1000 to 10000 nM"
compound="Cc1ccc(NC(=O)c2cc(C(F)(F)F)cnn2)cc1-c1ccnc(-c2ccnc(NC(=O)C3CN(C)CC3(F)F)c2)c1 (stereo not drawn) [Example 94]" result="1000 to 10000 nM"
compound="CC(=O)Nc1cc(-c2cc(-c3cc(NC(=O)c4ccc(C(F)(F)F)nn4)ccc3C)ccn2)ccn1 [Example 13]" result="< 100 nM"
compound="Cc1ccc(NC(=O)c2cc(C(F)(F)F)cnn2)cc1-c1ccnc(-c2ccnc(NC(=O)C3(F)CC3)c2)c1 [Example 4]" result="100 to 500 nM"
compound="Cc1ccc(NC(=O)c2cc(C(F)(F)F)cnn2)cc1-c1ccnc(-c2ccnc(NC(=O)C3CCN(C)C3)c2)c1 (stereo not drawn) [Example 51]" result="500 to 1000 nM"

Give the reported IC50 for Cc1ccc(NC(=O)c2cc(C(F)(F)F)cnn2)cc1-c1cc(N[C@H](C)CO)nc(-c2cn[nH]c2)c1 [Example 119] (system: Pa16c cells). < 100 nM

// query: Cc1ccc(NC(=O)c2cc(C(F)(F)F)cnn2)cc1-c1ccnc(-c2ccnc(NC(=O)CC3(C)CC3)c2)c1 [Example 90] 1000 to 10000 nM

Would you kindly repeat that for Cc1ccc(NC(=O)c2cc(C#N)cnn2)cc1-c1ccnc(-c2ccnc(NC(=O)C3CC3)c2)c1 [Example 96] ? 1000 to 10000 nM

Same question, COCC(=O)Nc1cc(-c2cc(-c3cc(NC(=O)c4cc(C(F)(F)F)cnn4)ccc3C)ccn2)ccn1 [Example 48] this time < 100 nM

Please answer likewise for Cc1ccc(NC(=O)c2cc(C(C)(F)F)cnn2)cc1-c1cc(NCCO)nc(-c2ccnc(NC(=O)C3CC3)c2)c1 [Example 101] < 100 nM

Proceed to Cc1ccc(NC(=O)c2ccc(C(F)(F)F)nc2)cc1-c1cncc(-c2ccnc(NC(=O)C3CC3)c2)c1 [Example 72] 1000 to 10000 nM

Let us now turn to COc1cnnc(C(=O)Nc2ccc(C)c(-c3ccnc(-c4ccnc(NC(=O)C5CC5)c4)c3)c2)c1 [Example 49] 1000 to 10000 nM
